- Tested on: P19
- PROCEDURE TEXT: Cytotoxicity against differentiated mouse P19 cells assessed as metabolic activity at 1 to 100 uM after 72 hrs by resazurin assay relative to control
- Assay type: functional
OBSERVATION TYPE: Activity

# input Give P19 Activity for "O=C(c1ccc2c(c1)C(=O)N(c1c[nH]c(=O)[nH]c1=O)C2=O)c1ccc2c(c1)C(=O)N(c1c[nH]c(=O)[nH]c1=O)C2=O"
# output 105%

# input Give P19 Activity for OC[C@H]1OC(O)C[C@@H](O)[C@@H]1O (stereo not given in full)
# output 94.4%

# input Give P19 Activity for "O=C(c1ccc2c(c1)C(=O)N(c1nc[nH]n1)C2=O)c1ccc2c(c1)C(=O)N(c1nc[nH]n1)C2=O"
# output 86.5%

# input Give P19 Activity for "O=C(c1ccc2c(c1)C(=O)N(c1cccc(O)c1)C2=O)c1ccc2c(c1)C(=O)N(c1cccc(O)c1)C2=O"
# output 91.5%

# input Give P19 Activity for "O=C(c1ccc2c(c1)C(=O)N(CCO)C2=O)c1ccc2c(c1)C(=O)N(CCO)C2=O"
# output 99.4%

###

- System: P19
- PROCEDURE TEXT: Cytotoxicity against undifferentiated mouse P19 cells assessed as metabolic activity at 1 to 100 uM after 48 hrs by resazurin assay relative to control
- Type: functional
What Activity was measured for each of the following?
Write the value in % as a bare number.

# input Can you look up the measured Activity of "O=C(c1ccc2c(c1)C(=O)N(c1ccccc1O)C2=O)c1ccc2c(c1)C(=O)N(c1ccccc1O)C2=O" for me?
# output 99.7

# input Can you look up the measured Activity of OC[C@H]1OC(O)C[C@@H](O)[C@@H]1O (some centres undefined) for me?
# output 91.2

# input Can you look up the measured Activity of "O=C(c1ccc2c(c1)C(=O)N(c1c[nH]c(=O)[nH]c1=O)C2=O)c1ccc2c(c1)C(=O)N(c1c[nH]c(=O)[nH]c1=O)C2=O" for me?
# output 103.2

# input Can you look up the measured Activity of "O=C(c1ccc2c(c1)C(=O)N(c1ccc(O)cc1)C2=O)c1ccc2c(c1)C(=O)N(c1ccc(O)cc1)C2=O" for me?
# output 74.4

###

What Activity was measured for each of the following?
- Test system: P19
- PROCEDURE TEXT: Cytotoxicity against differentiated mouse P19 cells assessed as metabolic activity at 1 to 100 uM after 24 hrs by resazurin assay relative to control
- Format: functional
Write the value in % as a bare number.

# input Can you look up the measured Activity of "O=C(c1ccc2c(c1)C(=O)N(c1nc[nH]n1)C2=O)c1ccc2c(c1)C(=O)N(c1nc[nH]n1)C2=O" for me?
# output 114

# input Can you look up the measured Activity of "O=C(c1ccc2c(c1)C(=O)N(CCCO)C2=O)c1ccc2c(c1)C(=O)N(CCCO)C2=O" for me?
# output 100.1

# input Can you look up the measured Activity of "O=C(c1ccc2c(c1)C(=O)N(CCO)C2=O)c1ccc2c(c1)C(=O)N(CCO)C2=O" for me?
# output 113.3

# input Can you look up the measured Activity of OC[C@H]1OC(O)C[C@@H](O)[C@@H]1O (some centres undefined) for me?
# output 90.5

###

What Activity was measured for each of the following?
- Test system: P19
- PROCEDURE TEXT: Cytotoxicity against differentiated mouse P19 cells assessed as metabolic activity at 1 to 100 uM after 24 hrs by resazurin assay relative to control
- Format: functional
Write the value in % as a bare number.

# input Give P19 Activity for "O=C(c1ccc2c(c1)C(=O)N(c1cccc(O)c1)C2=O)c1ccc2c(c1)C(=O)N(c1cccc(O)c1)C2=O"
# output 100

# input Give P19 Activity for "O=C(c1ccc2c(c1)C(=O)N(c1ccc(O)cc1)C2=O)c1ccc2c(c1)C(=O)N(c1ccc(O)cc1)C2=O"
# output 96.2

# input Give P19 Activity for "O=C(c1ccc2c(c1)C(=O)N(c1c[nH]c(=O)[nH]c1=O)C2=O)c1ccc2c(c1)C(=O)N(c1c[nH]c(=O)[nH]c1=O)C2=O"
# output 116.3

# input Give P19 Activity for "O=C(c1ccc2c(c1)C(=O)N(c1ccccc1O)C2=O)c1ccc2c(c1)C(=O)N(c1ccccc1O)C2=O"
# output 105
